Quick list: self-cleavage per entry.
B1: OR4K15 (parent)
chain: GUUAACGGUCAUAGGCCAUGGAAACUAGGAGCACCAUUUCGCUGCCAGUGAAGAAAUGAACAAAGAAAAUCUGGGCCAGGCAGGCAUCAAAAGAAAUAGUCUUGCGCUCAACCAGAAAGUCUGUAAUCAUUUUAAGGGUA

Variants of: B1
ASSAY SUMMARY: self-cleavage, relative activity (ratio to wild type); higher = more cleavage; in vitro, sequencing; the parent is a self-cleaving ribozyme
# respond with the number and nothing more

> print(dat)
      variant  measured.value
1  A90U A140U             1.2
2   A66U A89G             1.7
3   U9C A116U            0.55
4    U9A A69G            1.27
5   A30G A64G            1.35

Prompt: Reported self-cleavage for A36U A59U : what is it?
Response: 1.33

Prompt: Field entry: A11C U124C
Response: 1.12

Prompt: Field entry: U72A G119A
Response: 0.47

Prompt: Field entry: A96G U103A
Response: 1.08

Prompt: Field entry: U2G A96U
Response: 0.84

Prompt: Field entry: A5G A89G
Response: 1.23

Prompt: Field entry: A18G A116G
Response: 1.17

Prompt: Field entry: G84A A96U
Response: 2.46

Prompt: Field entry: G41C A67U
Response: 1.8

Prompt: Field entry: U2C U72A
Response: 0.1

Prompt: Field entry: U3C U103C
Response: 1.12

Prompt: Field entry: U57A A78U
Response: 0.16

Prompt: Field entry: A56G A90G
Response: 1.03

Prompt: Field entry: A60G C85U
Response: 1.31

Prompt: Field entry: A78G U97G
Response: 0.27

Prompt: Field entry: A62G A89U
Response: 1.85

Prompt: Field entry: U70C U72C
Response: 0.31
